Source of measurements: patent US10266544B2

zone of inhibition at 4 µg/disc: recorded values
Tested on: Legionella pneumophila (ATCC 33153)
Assay Comment: microbe, parasite or virus in culture
Type: cell-based
Study Conditions: ATCC33153, 72 h, read-out: Zone of inhibition L.p.
Structures can show the parent of a compound that is named as a salt.
// units = mm; emit number, no label

Compound	zone of inhibition at 4 µg/disc, mm
CN[C@@H]1[C@H](O)[C@H](NC)[C@H]2O[C@]3(O)[C@H](O[C@@H]2[C@H]1O)O[C@H](C)C[C@@]3(O)CNc1ccc(OC)cc1 [compound 29, Trihydrochloride]	0

Suppose we examine the compound CN[C@@H]1[C@H](O)[C@H](NC)[C@H]2O[C@]3(O)[C@H](O[C@@H]2[C@H]1O)O[C@H](C)C[C@@]3(O)CNCc1ccc(Cl)s1 [compound 21, Trihydrobromide] ; what zone of inhibition at 4 µg/disc value has been reported?
22

Item: CN[C@@H]1[C@H](O)[C@H](NC)[C@H]2O[C@]3(O)[C@H](O[C@@H]2[C@H]1O)O[C@H](C)C[C@@]3(O)CNCc1nccs1 [compound 19]
39

Moving on to CN[C@@H]1[C@H](O)[C@H](NC)[C@H]2O[C@]3(O)[C@H](O[C@@H]2[C@H]1O)O[C@H](C)C[C@@]3(O)CNCc1ccccn1 [compound 16]
34

Let us now turn to CN[C@@H]1[C@H](O)[C@H](NC)C2O[C@]3(O)C(OC2[C@H]1O)O[C@H](C)C[C@@]3(O)CNCc1cccc(O)c1 (some centres unmarked) [compound 35]
30
